Tested on: Candida albicans
Test: Antifungal activity against fluconazole-resistant Candida albicans ATCC 64550 after overnight incubation by CLSI broth microdilution method
Type: functional
Square brackets hold non-standard residues; d marks the D form. Peptide text beside a SMILES is read from it. tBuAla = CC(C)(C)C[C@H](N)C(=O)O
VALUE_KIND: MIC

COMPOUND: CC[C@H](NC(=O)[C@H](CCCCN)NC(=O)[C@H](CC)NC(=O)[C@H](CCCCN)NC(=O)[C@H](CC)NC(=O)[C@H](CCCCN)NC(=O)[C@@H](N)CC)C(=O)N[C@@H](CCCCN)C(N)=O (HELM PEPTIDE1{[Abu].K.[Abu].K.[Abu].K.[Abu].K.[am]}$$$$V2.0)
VALUE_KIND: MIC
REPORTED: > 100 µM
--
COMPOUND: CC(C)(C)C[C@H](NC(=O)[C@H](CCCCN)NC(=O)[C@H](CC(C)(C)C)NC(=O)[C@H](CCCCN)NC(=O)[C@H](CC(C)(C)C)NC(=O)[C@H](CCCCN)NC(=O)[C@@H](N)CC(C)(C)C)C(=O)N[C@@H](CCCCN)C(N)=O (H-[tBuAla]K[tBuAla]K[tBuAla]K[tBuAla]K-NH2)
VALUE_KIND: MIC
REPORTED: 3.13 µM
--
COMPOUND: CCC[C@H](NC(=O)[C@H](CCCCN)NC(=O)[C@H](CCC)NC(=O)[C@H](CCCCN)NC(=O)[C@H](CCC)NC(=O)[C@H](CCCCN)NC(=O)[C@@H](N)CCC)C(=O)N[C@@H](CCCCN)C(N)=O (HELM PEPTIDE1{[Nva].K.[Nva].K.[Nva].K.[Nva].K.[am]}$$$$V2.0)
VALUE_KIND: MIC
REPORTED: 6.25 µM
--
COMPOUND: OC(Cn1cncn1)(Cn1cncn1)c1ccc(F)cc1F
VALUE_KIND: MIC
REPORTED: > 100 µM
